# Test system: Escherichia coli TOP10
# assay-remarks: shrunken log2 fold change of peptide-encoding DNA abundance (4.5 h post-induction vs induction); higher = less antimicrobial activity (less host growth inhibition)
# recorded-conditions: time post-induction: 4.5 h; library: site-saturation at positions 5, 18, 19, 20
Entries and their measured shrunken log2 fold change follow.
measurement-label: shrunken log2 fold change

[[record]]
sequence_record = "RRIRKRPPRLPRPRPRPPLEPRP"
measurement_label = "shrunken log2 fold change"
assay_result = 0.456

[[record]]
sequence_record = "RRIRKRPPRLPRPRPRPFRCPRP"
measurement_label = "shrunken log2 fold change"
assay_result = -0.142

[[record]]
sequence_record = "RRIRHRPPRLPRPRPRPLPCPRP"
measurement_label = "shrunken log2 fold change"
assay_result = -0.0645

[[record]]
sequence_record = "RRIRLRPPRLPRPRPRPRSSPRP"
measurement_label = "shrunken log2 fold change"
assay_result = -0.277

[[record]]
sequence_record = "RRIRKRPPRLPRPRPRPGWGPRP"
measurement_label = "shrunken log2 fold change"
assay_result = 0.432

[[record]]
sequence_record = "RRIRMRPPRLPRPRPRPTYPPRP"
measurement_label = "shrunken log2 fold change"
assay_result = -0.0846

[[record]]
sequence_record = "RRIRYRPPRLPRPRPRPFAIPRP"
measurement_label = "shrunken log2 fold change"
assay_result = -0.158

[[record]]
sequence_record = "RRIRSRPPRLPRPRPRPCHAPRP"
measurement_label = "shrunken log2 fold change"
assay_result = -0.0203

[[record]]
sequence_record = "RRIRNRPPRLPRPRPRPHNMPRP"
measurement_label = "shrunken log2 fold change"
assay_result = -1.06

[[record]]
sequence_record = "RRIRSRPPRLPRPRPRPEMMPRP"
measurement_label = "shrunken log2 fold change"
assay_result = 0.681

[[record]]
sequence_record = "RRIRGRPPRLPRPRPRPAPEPRP"
measurement_label = "shrunken log2 fold change"
assay_result = 1.34

[[record]]
sequence_record = "RRIRFRPPRLPRPRPRPLMTPRP"
measurement_label = "shrunken log2 fold change"
assay_result = 0.189

[[record]]
sequence_record = "RRIRCRPPRLPRPRPRPKHEPRP"
measurement_label = "shrunken log2 fold change"
assay_result = -0.000422

[[record]]
sequence_record = "RRIRTRPPRLPRPRPRPMTGPRP"
measurement_label = "shrunken log2 fold change"
assay_result = 0.17


###

# System: Escherichia coli TOP10;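 further: peptides expressed intracellularly from a pBAD plasmid library in pooled LB shake-flask culture, induced with 0.3% L-arabinose, DNA abundance read by NGS, three biological replicates, DESeq2 with apeglm shrinkage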
# assay-remarks: shrunken log2 fold change of peptide-encoding DNA abundance (4.5 h post-induction vs induction); higher = less antimicrobial activity (less host growth inhibition)
# recorded-conditions: time post-induction: 4.5 h; library: site-saturation at positions 5, 18, 19, 20
Answer 0 if shrunken log2 fold change is under 0.07, and 1 if it is 0.07 or more.

[[record]]
sequence_record = "RRIRYRPPRLPRPRPRPPDSPRP"
system_name = "Escherichia coli TOP10"
label = 0

[[record]]
sequence_record = "RRIRCRPPRLPRPRPRPVWPPRP"
system_name = "Escherichia coli TOP10"
label = 1

[[record]]
sequence_record = "RRIRIRPPRLPRPRPRPAYQPRP"
system_name = "Escherichia coli TOP10"
label = 0

[[record]]
sequence_record = "RRIRSRPPRLPRPRPRPKPNPRP"
system_name = "Escherichia coli TOP10"
label = 1

[[record]]
sequence_record = "RRIRGRPPRLPRPRPRPTSYPRP"
system_name = "Escherichia coli TOP10"
label = 1

[[record]]
sequence_record = "RRIRKRPPRLPRPRPRPNENPRP"
system_name = "Escherichia coli TOP10"
label = 1

[[record]]
sequence_record = "RRIRARPPRLPRPRPRPCVGPRP"
system_name = "Escherichia coli TOP10"
label = 1

[[record]]
sequence_record = "RRIRIRPPRLPRPRPRPQNLPRP"
system_name = "Escherichia coli TOP10"
label = 0

[[record]]
sequence_record = "RRIRHRPPRLPRPRPRPLVTPRP"
system_name = "Escherichia coli TOP10"
label = 1

[[record]]
sequence_record = "RRIRRRPPRLPRPRPRPACEPRP"
system_name = "Escherichia coli TOP10"
label = 1

[[record]]
sequence_record = "RRIRCRPPRLPRPRPRPRPPPRP"
system_name = "Escherichia coli TOP10"
label = 1

[[record]]
sequence_record = "RRIRMRPPRLPRPRPRPTSLPRP"
system_name = "Escherichia coli TOP10"
label = 1

[[record]]
sequence_record = "RRIRARPPRLPRPRPRPAYFPRP"
system_name = "Escherichia coli TOP10"
label = 0

[[record]]
sequence_record = "RRIRWRPPRLPRPRPRPGLMPRP"
system_name = "Escherichia coli TOP10"
label = 1

[[record]]
sequence_record = "RRIRFRPPRLPRPRPRPKIDPRP"
system_name = "Escherichia coli TOP10"
label = 0

[[record]]
sequence_record = "RRIRTRPPRLPRPRPRPFMFPRP"
system_name = "Escherichia coli TOP10"
label = 0

[[record]]
sequence_record = "RRIRKRPPRLPRPRPRPIAHPRP"
system_name = "Escherichia coli TOP10"
label = 1

[[record]]
sequence_record = "RRIRWRPPRLPRPRPRPQNEPRP"
system_name = "Escherichia coli TOP10"
label = 0

[[record]]
sequence_record = "RRIRHRPPRLPRPRPRPHKLPRP"
system_name = "Escherichia coli TOP10"
label = 0

[[record]]
sequence_record = "RRIRHRPPRLPRPRPRPPEEPRP"
system_name = "Escherichia coli TOP10"
label = 1

[[record]]
sequence_record = "RRIRNRPPRLPRPRPRPLVSPRP"
system_name = "Escherichia coli TOP10"
label = 0

[[record]]
sequence_record = "RRIRHRPPRLPRPRPRPTLHPRP"
system_name = "Escherichia coli TOP10"
label = 0

[[record]]
sequence_record = "RRIRMRPPRLPRPRPRPWCFPRP"
system_name = "Escherichia coli TOP10"
label = 0

[[record]]
sequence_record = "RRIRKRPPRLPRPRPRPDVLPRP"
system_name = "Escherichia coli TOP10"
label = 0

[[record]]
sequence_record = "RRIRSRPPRLPRPRPRPMLGPRP"
system_name = "Escherichia coli TOP10"
label = 1

[[record]]
sequence_record = "RRIRPRPPRLPRPRPRPQYLPRP"
system_name = "Escherichia coli TOP10"
label = 0

[[record]]
sequence_record = "RRIRMRPPRLPRPRPRPSAAPRP"
system_name = "Escherichia coli TOP10"
label = 1

[[record]]
sequence_record = "RRIRYRPPRLPRPRPRPLSGPRP"
system_name = "Escherichia coli TOP10"
label = 0

[[record]]
sequence_record = "RRIRHRPPRLPRPRPRPIFDPRP"
system_name = "Escherichia coli TOP10"
label = 0

[[record]]
sequence_record = "RRIRIRPPRLPRPRPRPEKPPRP"
system_name = "Escherichia coli TOP10"
label = 0

[[record]]
sequence_record = "RRIRHRPPRLPRPRPRPNSCPRP"
system_name = "Escherichia coli TOP10"
label = 0

[[record]]
sequence_record = "RRIRCRPPRLPRPRPRPQVCPRP"
system_name = "Escherichia coli TOP10"
label = 0

[[record]]
sequence_record = "RRIRGRPPRLPRPRPRPSERPRP"
system_name = "Escherichia coli TOP10"
label = 1

[[record]]
sequence_record = "RRIRQRPPRLPRPRPRPSQFPRP"
system_name = "Escherichia coli TOP10"
label = 0

[[record]]
sequence_record = "RRIRVRPPRLPRPRPRPSHAPRP"
system_name = "Escherichia coli TOP10"
label = 0

[[record]]
sequence_record = "RRIRCRPPRLPRPRPRPFWCPRP"
system_name = "Escherichia coli TOP10"
label = 0

[[record]]
sequence_record = "RRIRIRPPRLPRPRPRPLEEPRP"
system_name = "Escherichia coli TOP10"
label = 1

[[record]]
sequence_record = "RRIRDRPPRLPRPRPRPPAEPRP"
system_name = "Escherichia coli TOP10"
label = 1

[[record]]
sequence_record = "RRIRYRPPRLPRPRPRPLMPPRP"
system_name = "Escherichia coli TOP10"
label = 0

[[record]]
sequence_record = "RRIRGRPPRLPRPRPRPILCPRP"
system_name = "Escherichia coli TOP10"
label = 1

[[record]]
sequence_record = "RRIRIRPPRLPRPRPRPWGWPRP"
system_name = "Escherichia coli TOP10"
label = 1

[[record]]
sequence_record = "RRIRYRPPRLPRPRPRPCFYPRP"
system_name = "Escherichia coli TOP10"
label = 0

